IC50 values, listed per item
tested on: Rh18 complex spheroid viability, percent test/control; experiment: Anticancer human tumor Rh18 cell line growth inhibition [Asc]; conditions: curve of first compound; second compound 3.16 µM;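 note: spheroids exposed to compound for 7 days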

MOLECULE	TESTED_ON	QUANTITY_MEASURED	RESULT_VALUE
O=C(c1cc(Cc2n[nH]c(=O)c3ccccc23)ccc1F)N1CCN(C(=O)C2CC2)CC1 + Cc1c(S(C)(=O)=O)c(-c2cc(F)cc(N3CCN(c4ccc(NS(=O)(=O)c5ccc(NC(CCN6CCC(C(=O)OCCCP(=O)(O)O)CC6)CSc6ccccc6)c(S(=O)(=O)C(F)(F)F)c5)cc4)CC3)c2)c(-c2ccc(Cl)cc2)n1C(C)C	Rh18 complex spheroid viability, percent test/control	IC50	< 31.6 nM

Per the records, this molecule ( C#Cc1c(F)ccc2cc(O)cc(-c3ncc4c(N5CC6CCC(C5)N6)nc(OCC56CCCN5CC(F)C6)nc4c3F)c12 (configuration not stated) + Cc1c(S(C)(=O)=O)c(-c2cc(F)cc(N3CCN(c4ccc(NS(=O)(=O)c5ccc(NC(CCN6CCC(C(=O)OCCCP(=O)(O)O)CC6)CSc6ccccc6)c(S(=O)(=O)C(F)(F)F)c5)cc4)CC3)c2)c(-c2ccc(Cl)cc2)n1C(C)C ) has IC50 equal to < 31.6 nM
